# assayTarget: LPA/S1P GPCR of interest (Homo sapiens)
# Sequence (Q92633 whole entry): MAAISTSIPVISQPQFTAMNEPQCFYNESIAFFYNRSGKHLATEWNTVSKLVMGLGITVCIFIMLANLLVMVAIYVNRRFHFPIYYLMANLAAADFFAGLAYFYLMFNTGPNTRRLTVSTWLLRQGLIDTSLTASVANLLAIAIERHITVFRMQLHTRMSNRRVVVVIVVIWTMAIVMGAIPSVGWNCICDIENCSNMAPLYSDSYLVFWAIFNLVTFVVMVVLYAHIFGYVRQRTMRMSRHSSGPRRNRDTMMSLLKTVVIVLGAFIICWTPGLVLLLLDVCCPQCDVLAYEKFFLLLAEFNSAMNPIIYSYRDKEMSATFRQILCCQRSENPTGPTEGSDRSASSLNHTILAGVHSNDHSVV
# experimentalDetails: Beta-Arrestin based assay (PathHunter)
pEC50: −log10 of the molar value.
propertyLabel: pEC50

The following compounds have reported results that may help.
> print(dat)
                             smilesnotation                              assaytarget      obsvalue
1  Cc1noc(-c2ccc(-c3ccc(Oc4ccccc4C(=O)O)cn3)cc2)c1NC(=O)O[C@H](C)c1ccccc1  LPA/S1P GPCR of interest (Homo sapiens)        > 7.30
2  Cc1noc(-c2ccc(-c3ccc(S(=O)(=O)C4CC4)cc3)cc2)c1NC(=O)O[C@H](C)c1ccccc1  LPA/S1P GPCR of interest (Homo sapiens)        < 6.30
3  Cc1noc(-c2ccc(-c3ccc(S(C)(=O)=O)nc3)cc2)c1NC(=O)O[C@H](C)c1ccccc1  LPA/S1P GPCR of interest (Homo sapiens)  6.30 to 7.30
4  C[C@@H](OC(=O)Nc1c(-c2cc3sc(-c4cc(F)c(C5(C(=O)O)CC5)c(F)c4)cc3s2)cnn1C)c1ccccc1  LPA/S1P GPCR of interest (Homo sapiens)        > 7.30
5  Cc1nsc(-c2cc3sc(-c4ccc(CC(=O)O)cc4F)cc3s2)c1NC(=O)O[C@H](C)c1ccccc1  LPA/S1P GPCR of interest (Homo sapiens)  6.30 to 7.30

Find the measured pEC50 of "Cc1noc(-c2ccc(-c3ccc(Oc4nccnc4C(=O)O)cc3)cc2)c1NC(=O)O[C@H](C)c1ccccc1" and report it. > 7.30

Find the measured pEC50 of "C[C@@H](OC(=O)Nc1c(-c2cc(Cl)c(-c3cc4sc(C5(C(=O)O)CC5)cc4s3)cc2F)cnn1C)c1ccccc1" and report it. > 7.30
